system: cytochrome P450 3A4 (Homo sapiens, UniProt P08684)
Construct: microsomal fractions
Sequence (P08684 whole entry): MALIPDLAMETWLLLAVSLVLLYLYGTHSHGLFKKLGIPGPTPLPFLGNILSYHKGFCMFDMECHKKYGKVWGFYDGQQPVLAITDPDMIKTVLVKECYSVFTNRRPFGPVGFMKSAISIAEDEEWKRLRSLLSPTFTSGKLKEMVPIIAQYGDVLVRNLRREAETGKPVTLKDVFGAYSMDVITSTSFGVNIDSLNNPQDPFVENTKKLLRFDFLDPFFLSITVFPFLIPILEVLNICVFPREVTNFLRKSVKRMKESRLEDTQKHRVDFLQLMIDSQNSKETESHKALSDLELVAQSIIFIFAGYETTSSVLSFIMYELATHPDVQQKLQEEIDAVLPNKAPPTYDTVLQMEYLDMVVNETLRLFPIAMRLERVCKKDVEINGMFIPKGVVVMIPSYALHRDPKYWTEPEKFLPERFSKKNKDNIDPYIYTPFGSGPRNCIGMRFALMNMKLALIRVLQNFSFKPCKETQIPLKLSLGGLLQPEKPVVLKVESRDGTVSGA
protocol text: biochemical
pKd: −log10 of the molar value.
quantity name: pKd

Give cytochrome P450 3A4 (Homo sapiens, UniProt P08684) pKd for C=C(C)[C@@H]1CCC2=CC(=O)C[C@@H](C)[C@]2(C)C1
4.00 to 4.10

Reference source: patent US6054490A
